Data origin: patent US20200331882A1

Test system: mouse colon cancer cell CT26.WT
testSummary: MTT tumor cell proliferation
Format: cell-based
cond: Mus musculus, 72 h
observedProperty: IC50 (nM)
Your answer is read as nM, so omit the unit and give the number.

Sample answers from the record:
{"molecule": "CN1CCN(c2ccc(-c3ccc(/C=C/C(=O)NO)cc3)cc2)CC1 [ZZY-012]", "recordedResult": 737}
{"molecule": "Cc1cc(/C=C/C(=O)NO)ccc1-c1ccc(N2CCNCC2)cc1NC(=O)c1ccccc1 [ZZY-002]", "recordedResult": 31200}
{"molecule": "Cc1ccc(C(=O)Nc2cc(N3CCNCC3)ccc2-c2ccc(/C=C/C(=O)NO)cc2C)cc1.Cl [ZZY-003]", "recordedResult": 8760}
{"molecule": "Cc1cc(/C=C/C(=O)NO)ccc1-c1ccc(N2CCNCC2)cc1 [ZZY-001]", "recordedResult": 2200}

Now for another entry.
Query: Specify measured IC50 for Cc1cc(/C=C/C(=O)NO)ccc1-c1ccc(N2CCN(C)CC2)cc1 [ZZY-011] .
Reply: 1050

----------
Tested on: NCI-H1299
testSummary: CellTiter-Glo cell proliferation
Format: cell-based
cond: Homo sapiens, CTG, 72 hours, read-out: Absolute IC50
Protocol: The effect of the present invention compound ZZY-003 on the cell proliferation of 50 cell lines was evaluated by CellTiter-Glo (CTG) method, and the 50% inhibitory concentration was calculated by detecting the cell viability after treatment with different drug concentrations. […] The cells in logarithmic growth phase were harvested and the cells were counted by cell counter. The cell viability was detected by Trypan blue exclusion method to ensure that the cell line viability was more than 96%. […]
observedProperty: IC50 (µM)
Your answer is read as µM, so omit the unit and give the number.

Query: State the measured IC50 (NCI-H1299) of Cc1ccc(C(=O)Nc2cc(N3CCNCC3)ccc2-c2ccc(/C=C/C(=O)NO)cc2C)cc1.Cl [ZZY-003]
Reply: 3.4

----------
System: NCI-H82
testSummary: CellTiter-Glo cell proliferation
Format: cell-based
cond: Homo sapiens, CTG, 72 hours, read-out: Absolute IC50
observedProperty: pIC50
// pIC50 here means minus log10 of the molar concentration (mol/L)

Query: State the measured pIC50 (NCI-H82) of Cc1ccc(C(=O)Nc2cc(N3CCNCC3)ccc2-c2ccc(/C=C/C(=O)NO)cc2C)cc1.Cl
Reply: 6.43

----------
Tested on: HL-60
testSummary: CellTiter-Glo cell proliferation
Type: cell-based
cond: CTG, 72 hours, read-out: Absolute IC50
observedProperty: pIC50
// pIC50 here means minus log10 of the molar concentration (mol/L)

Query: Specify measured pIC50 for N.N.[Cl][Pt][Cl] [Cisplatin, reference compound] .
Reply: 5.81

----------
Test system: Jurkat clone E6-1
testSummary: CellTiter-Glo cell proliferation
Assay type: cell-based
cond: Homo sapiens, CTG, 72 hours, read-out: Absolute IC50
observedProperty: IC50
Form entry: enter the amount, then its unit.

Query: Specify measured IC50 for Cc1ccc(C(=O)Nc2cc(N3CCNCC3)ccc2-c2ccc(/C=C/C(=O)NO)cc2C)cc1.Cl .
Reply: 480 nM

----------
System: T84
testSummary: CellTiter-Glo cell proliferation
Type: cell-based
cond: Homo sapiens, CTG, 72 hours, read-out: Absolute IC50
observedProperty: pIC50
// pIC50 here means minus log10 of the molar concentration (mol/L)

Query: Specify measured pIC50 for Cc1ccc(C(=O)Nc2cc(N3CCNCC3)ccc2-c2ccc(/C=C/C(=O)NO)cc2C)cc1.Cl [ZZY-003] .
Reply: 5.00

----------
Below, each entry is listed with its recorded pIC50.
System: 5637
testSummary: CellTiter-Glo cell proliferation
Format: cell-based
cond: CTG, 72 hours, read-out: Absolute IC50
// pIC50 here means minus log10 of the molar concentration (mol/L)

{"compound": "N.N.[Cl][Pt][Cl] [Cisplatin, reference compound]", "observedProperty": "pIC50", "recordedResult": 5.59}

Query: Specify measured pIC50 for Cc1ccc(C(=O)Nc2cc(N3CCNCC3)ccc2-c2ccc(/C=C/C(=O)NO)cc2C)cc1.Cl .
Reply: 6.09

----------
Tested on: MOLM-13
testSummary: CellTiter-Glo cell proliferation
Assay type: cell-based
cond: Homo sapiens, CTG, 72 hours, read-out: Absolute IC50
observedProperty: pIC50
// pIC50 here means minus log10 of the molar concentration (mol/L)

Query: Specify measured pIC50 for Cc1ccc(C(=O)Nc2cc(N3CCNCC3)ccc2-c2ccc(/C=C/C(=O)NO)cc2C)cc1.Cl .
Reply: 6.68

----------
Tested on: PC-3
testSummary: CellTiter-Glo cell proliferation
Type: cell-based
cond: CTG, 72 hours, read-out: Absolute IC50
observedProperty: IC50 (µM)
Your answer is read as µM, so omit the unit and give the number.

Query: State the measured IC50 (PC-3) of N.N.[Cl][Pt][Cl] [Cisplatin, reference compound]
Reply: 5.34

----------
Test system: H69AR
testSummary: CellTiter-Glo cell proliferation
Assay type: cell-based
cond: CTG, 72 hours, read-out: Absolute IC50
observedProperty: IC50 (µM)
Your answer is read as µM, so omit the unit and give the number.

Query: Specify measured IC50 for N.N.[Cl][Pt][Cl] [Cisplatin, reference compound] .
Reply: 5.65

----------
Tested on: Ramos
testSummary: CellTiter-Glo cell proliferation
Type: cell-based
cond: Homo sapiens, CTG, 72 hours, read-out: Absolute IC50
observedProperty: pIC50
// pIC50 here means minus log10 of the molar concentration (mol/L)

Query: State the measured pIC50 (Ramos) of Cc1ccc(C(=O)Nc2cc(N3CCNCC3)ccc2-c2ccc(/C=C/C(=O)NO)cc2C)cc1.Cl
Reply: 6.49

----------
experimentalTarget: recombinant human LSD1 protein (Homo sapiens, UniProt O60341)
Construct: made in house; host or cells: E. coli
testSummary: In vitro LSD1 inhibitory activity, LSD1-HRP coupling reaction (Amplex Red)
Type: biochemical
cond: LSD1 enzyme activity in vitro; 30 min preincubation; H3K4Me2 peptide
Below, each entry is listed with its recorded IC50.
Your answer is read as nM, so omit the unit and give the number.

{"molecule": "Cc1cc(/C=C/C(=O)NO)ccc1-c1ccc(-n2ccnc2)cc1 [ZZY-009]", "measurementUnit": "nM", "IC50": 1400}

Now for another entry.
Query: Specify measured IC50 for Cc1cc(C(=O)Nc2ccccc2N)ccc1-c1ccc(N2CCNCC2)cc1 [ZZY-006] .
Reply: 2380

----------
experimentalTarget: recombinant human LSD1 protein (Homo sapiens)
testSummary: In vitro LSD1 inhibitory activity, LSD1-HRP coupling reaction (Amplex Red)
cond: LSD1 enzyme activity in vitro; 30 min preincubation; H3K4Me2 peptide
observedProperty: IC50 (nM)
Your answer is read as nM, so omit the unit and give the number.

Query: State the measured IC50 (recombinant human LSD1 protein (Homo sapiens)) of Cc1cc(/C=C/C(=O)NO)ccc1-c1ccc(N2CCNCC2)cc1NC(=O)c1ccccc1 [ZZY-002]
Reply: 1320

Query: State the measured IC50 (recombinant human LSD1 protein (Homo sapiens)) of Cc1cc(/C=C/C(=O)NO)ccc1-c1ccc(N2CCNCC2)nc1 [ZZY-015]
Reply: 879

Query: State the measured IC50 (recombinant human LSD1 protein (Homo sapiens)) of Cc1cc(/C=C/C(=O)NO)ccc1-c1ccc(N2CCCCC2)cc1 [ZZY-013]
Reply: 1410

----------
experimentalTarget: recombinant human LSD1 protein (Homo sapiens, UniProt O60341)
testSummary: In vitro LSD1 inhibitory activity, LSD1-HRP coupling reaction (Amplex Red)
cond: LSD1 enzyme activity in vitro; 30 min preincubation; H3K4Me2 peptide
observedProperty: pIC50
// pIC50 here means minus log10 of the molar concentration (mol/L)

{"compoundSmiles": "O=C(/C=C/c1ccc(-c2ccc(N3CCCCC3)cc2)cc1)NO", "pIC50": 5.96}
{"compoundSmiles": "O=C(/C=C/c1ccc(-c2ccc(N3CCNCC3)nc2)cc1)NO", "pIC50": 6.00}
{"compoundSmiles": "Cc1cc(/C=C/C(=O)NO)ccc1-c1ccc(N2CCOCC2)cc1", "pIC50": 6.32}
{"compoundSmiles": "O=C(/C=C/c1ccc(-c2ccc(-n3ccnc3)cc2)cc1)NO", "pIC50": 5.08}
{"compoundSmiles": "Cc1ccc(C(=O)Nc2cc(N3CCNCC3)ccc2-c2ccc(/C=C/C(=O)NO)cc2C)cc1.Cl", "pIC50": 6.36}

Query: Specify measured pIC50 for O=C(/C=C/c1ccc(-c2ccc(N3CCOCC3)cc2)cc1)NO .
Reply: 6.15

Query: Specify measured pIC50 for Cc1cc(/C=C/C(=O)NO)ccc1-c1ccc(N2CCNCC2)cc1 .
Reply: 5.81
